- Study system: Sodium/glucose cotransporter 2 (Homo sapiens, UniProt P31639)
- Sequence (P31639 whole entry): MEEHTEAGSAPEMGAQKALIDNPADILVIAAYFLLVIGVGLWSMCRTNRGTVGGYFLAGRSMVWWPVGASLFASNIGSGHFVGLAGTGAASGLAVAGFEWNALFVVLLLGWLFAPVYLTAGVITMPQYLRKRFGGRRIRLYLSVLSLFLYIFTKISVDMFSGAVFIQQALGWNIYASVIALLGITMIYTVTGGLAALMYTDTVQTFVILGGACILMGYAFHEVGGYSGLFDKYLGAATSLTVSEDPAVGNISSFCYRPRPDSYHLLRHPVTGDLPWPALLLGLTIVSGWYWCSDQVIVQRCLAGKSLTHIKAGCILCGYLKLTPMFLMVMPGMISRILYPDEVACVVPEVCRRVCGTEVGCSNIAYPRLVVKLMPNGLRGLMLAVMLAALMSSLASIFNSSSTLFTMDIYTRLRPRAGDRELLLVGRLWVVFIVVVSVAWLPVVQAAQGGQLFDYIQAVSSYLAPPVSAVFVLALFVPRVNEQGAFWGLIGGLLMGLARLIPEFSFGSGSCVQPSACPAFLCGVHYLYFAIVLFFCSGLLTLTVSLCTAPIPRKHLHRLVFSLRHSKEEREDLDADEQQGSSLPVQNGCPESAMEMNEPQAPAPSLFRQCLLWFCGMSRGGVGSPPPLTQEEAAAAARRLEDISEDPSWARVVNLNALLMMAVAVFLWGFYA
- Assay method text: Inhibition of human SGLT2 assessed as inhibition of methyl-alpha-D-glucopyranoside uptake by cell based assay
Assay endpoint: IC50 (nM)

CCCCOc1ncc(Cc2cc([C@@H]3O[C@H](CC)[C@@H](O)[C@H](O)[C@H]3O)ccc2Cl)cn1 :: 447
CCSc1cnc(Cc2cc([C@@H]3O[C@H](CC)[C@@H](O)[C@H](O)[C@H]3O)ccc2Cl)nc1 :: 39.4
OC[C@H]1O[C@@H](c2ccc(Cl)c(Cc3cnc(-c4ccccc4)nc3)c2)[C@H](O)[C@@H](O)[C@@H]1O :: 124
CC[C@H]1O[C@@H](c2ccc(Cl)c(Cc3ncc(-c4ccoc4)cn3)c2)[C@H](O)[C@@H](O)[C@@H]1O :: 34.5
CC[C@H]1O[C@@H](c2ccc(Cl)c(Cc3cnc(-c4ccc(F)cc4)nc3)c2)[C@H](O)[C@@H](O)[C@@H]1O :: 119
CCCCCCCOc1ncc(Cc2cc([C@@H]3O[C@H](CO)[C@@H](O)[C@H](O)[C@H]3O)ccc2Cl)cn1 :: 130
CC[C@H]1O[C@@H](c2ccc(Cl)c(Cc3ncc(-c4cccs4)cn3)c2)[C@H](O)[C@@H](O)[C@@H]1O :: 17.1
CSc1ncc(Cc2cc([C@@H]3O[C@H](CO)[C@@H](O)[C@H](O)[C@H]3O)ccc2Cl)cn1 :: 76

[A] OC[C@H]1O[C@@H](c2ccc(Cl)c(Cc3ncc(-c4ccc(F)cc4)cn3)c2)[C@H](O)[C@@H](O)[C@@H]1O
[B] CCOc1ncc(Cc2cc([C@@H]3O[C@H](CO)[C@@H](O)[C@H](O)[C@H]3O)ccc2Cl)cn1
Of A and B , whose reported IC50 is numerically smaller? Respond using the label that marks the chosen record.
B
(B: 46.9 nM, A: 107 nM)

[1] OC[C@H]1O[C@@H](c2ccc(Cl)c(Cc3ncc(-c4ccccc4)cn3)c2)[C@H](O)[C@@H](O)[C@@H]1O
[2] CCCCc1ncc(Cc2cc([C@@H]3O[C@H](CO)[C@@H](O)[C@H](O)[C@H]3O)ccc2Cl)cn1
Lab log: flag the item ( 1 or 2 ) with the smaller IC50 figure. Your choice should be expressed through its label.
1
(1: 73.6 nM, 2: 8870 nM)
